# System: RPMI-8226 leukemia
# assayProtocol: NCI tumour cell line growth inhibition, 48 h; in the data active = GI50 below about 0.43 µM; inactive = the rest
Possible outcomes: True for active, False for inactive

- C=C(C)[C@@H]1CC[C@]2(C(=O)NCCNCCNCCN)CC[C@]3(C)[C@H](CC[C@@H]4[C@@]5(C)CC[C@H](O)C(C)(C)[C@@H]5CC[C@]43C)[C@@H]12: False
- N#Cc1cccc(C(=O)Nc2cccc(NC(=O)c3cccc(C#N)c3)c2)c1: False
- COc1cc2c3c(n(CCCNCC(OC)OC)c(=O)c2cc1OC)-c1cc2c(cc1C3=O)OCO2: True
- [C-]#[O+].[C-]#[O+].[C-]#[O+].[C-]#[O+].[Ir].[Ir].[O-]c1ccc2ccccc2c1C=Nc1ccc(N=Cc2c([O-])ccc3ccccc23)cc1: False
- C=CC1=C[C@@H]2[C@@H]3O[C@]4(CC[C@H](O4)[C@@H](C)C[C@@H](O)C3=O)C[C@H](O)C3=NCC[C@@]32CC1: True
- CC1=CCC(OC(=O)C(C)(C)CCC(O)(C(=O)OC2(C(C)C)CCC3(C)OC3C2)C(C)C)(C(C)C)CC1 (centres undefined): True
- N=c1c2c(-c3ccccc3)c(-c3ccccc3)n(Cc3ccccc3)c2ncn1CCCO: False
- COc1ccc(C(=O)COc2cccc(/C=C3\CSc4ccccc4C3=O)c2)cc1: True
- O=C(CCCCCCSc1nc(-c2ccccc2)cc(-c2ccccc2)n1)NO: True
